Items are presented alongside their recorded IC50.
Molecular target: AM2 receptor-expressing cells (1321N1 cells transfected with CALCRL+RAMP3) (Homo sapiens, UniProt O60896+Q16602)
Construct: host or cells: 1321N1 cells
Sequence (Q16602 23-461): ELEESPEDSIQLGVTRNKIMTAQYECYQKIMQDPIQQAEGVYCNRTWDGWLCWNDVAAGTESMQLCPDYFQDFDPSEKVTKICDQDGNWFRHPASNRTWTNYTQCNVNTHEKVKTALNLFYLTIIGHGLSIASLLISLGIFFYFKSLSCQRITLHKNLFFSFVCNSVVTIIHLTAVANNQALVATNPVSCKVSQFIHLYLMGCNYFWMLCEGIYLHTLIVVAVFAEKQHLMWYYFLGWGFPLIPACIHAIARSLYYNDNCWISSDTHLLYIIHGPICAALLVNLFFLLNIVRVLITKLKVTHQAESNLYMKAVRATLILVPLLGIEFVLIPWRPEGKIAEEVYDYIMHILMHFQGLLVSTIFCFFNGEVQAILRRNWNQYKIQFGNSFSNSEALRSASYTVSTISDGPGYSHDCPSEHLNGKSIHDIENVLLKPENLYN
Sequence (O60896 24-148): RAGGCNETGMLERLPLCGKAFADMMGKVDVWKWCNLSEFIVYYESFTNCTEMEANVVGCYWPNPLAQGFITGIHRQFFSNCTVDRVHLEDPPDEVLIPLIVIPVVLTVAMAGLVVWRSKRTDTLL
Test: AM2 receptor inhibition, LANCE cAMP agonist-antagonist competition assay (AM2 D2 protocol)
Assay type: cell-based
Conditions: inhibition of AM induced cAMP in 1321N1 cells expressing CALCRL+RAMP3; read-out: AM2 D2 protocol: pIC50 (converted)
Write it as a number; the unit nM goes unstated.

Query :: Look at this compound and give its reported IC50. CC(C)(C)C(=O)N(CC(=O)Nc1ccc2c(c1)C[C@@]1(C2)C(=O)Nc2ncccc21)C1CCC2CCC1N2 (single isomer, unassigned) [Example 31A]
Result :: 316

Query :: Look at this compound and give its reported IC50. O=C(CN(C(=O)C1(C(F)(F)F)CCC1)[C@H]1CCCNC1)Nc1ccc2c(c1)C[C@@]1(C2)C(=O)Nc2ncccc21
Result :: 263

Then there is this compound:
Query :: Look at this compound and give its reported IC50. O=C(CN(C(=O)C12CC(C1)C2)[C@H]1CCCNC1)Nc1ccc2c(c1)C[C@@]1(C2)C(=O)Nc2ncccc21
Result :: 251
